Assay: Cmax in Sprague-Dawley rat at 5 mg/kg, iv measured after 48 hrs
Type: ADME, organism-based
Conditions: in vivo
attribute.measured: Cmax
# answer = value followed by unit

Prompt: Any idea what Cmax was measured for c1cc(-c2cc(C3CCNCC3)n[nH]2)c2cc[nH]c2n1 ?
Completion: 3580 ng/mL

---

Test: Clearance in Sprague-Dawley rat at 5 mg/kg, iv measured after 48 hrs
Format: ADME, organism-based
Details: in vivo
attribute.measured: clearance (mL/min/kg)
Respond with the bare value in mL/min/kg.

Prompt: # lookup: clearance of c1cc(-c2cc(C3CCNCC3)n[nH]2)c2cc[nH]c2n1
Completion: 52
